These measurements were taken from PubChem BioAssay (NCATS).

Tested on: CP201
Procedure Summary: qHTS profiling for inhibitors of Plasmodium falciparum proliferation (AID 504749); further: nearly all actives have a fitted effect of over 60% in size
Condition: P. falciparum in erythrocytes, SYBR Green DNA, 72 h; series mostly up to 28.7 µM
Results filed as inconclusive are left out. Calls of active or inactive are those of the source. The call rests on the fitted dose curve; in most records, active means well fitted inhibition curve with a large enough effect; inconclusive means small, poorly fitted or top-dose-only effect; inactive means flat fitted curve, though single readings scatter.
Classes used: active, inactive

{"Molecule": "C=CCN1CC(C(=O)N(CCCN(C)C)C(=O)NCC)CC2c3cccc4[nH]cc(c34)CC21 (stereo not given)", "Group": "inactive"}
{"Molecule": "CCCCCCCCCCCCCCCC(=O)OCC(COP(=O)(O)OCC[N+](C)(C)C)OC(=O)CCCCCCCCCCCCCCC (stereo not given)", "Group": "inactive"}
{"Molecule": "Cc1ccc(S(=O)(=O)NC(=O)NC(C)Cc2ccccc2)cc1 (stereo not given)", "Group": "inactive"}
{"Molecule": "CC1C(=O)C(=O)C=CN1C (stereo not given)", "Group": "inactive"}
{"Molecule": "CC[C@]1([C@H]2O[C@@H]([C@@H]3O[C@](O)(CO)[C@@H](C)C[C@H]3C)C[C@H]2C)CC[C@@H]([C@]2(C)CC[C@@]3(C[C@@H](O)[C@@H](C)[C@@H]([C@H](C)[C@H](OC)[C@H](C)C(=O)O)O3)O2)O1", "Group": "active"}
{"Molecule": "Nc1nc(F)nc2c1ncn2[C@@H]1O[C@H](CO)[C@@H](O)[C@H]1O", "Group": "inactive"}
{"Molecule": "CCC(C)C(N)C(=O)O (stereo not given)", "Group": "inactive"}
{"Molecule": "CC(=O)N1CC(O)CC1C(=O)O (stereo not given)", "Group": "inactive"}
{"Molecule": "CC(=O)NC1[C@H](O)C[C@@](O)(C(=O)O)O[C@H]1[C@H](O)[C@H](O)CO (stereo not given in full)", "Group": "inactive"}
{"Molecule": "NC(CSSCC(N)C(=O)O)C(=O)O (stereo not given)", "Group": "inactive"}

----------
Tested on: DIV30
Procedure Summary: qHTS profiling for inhibitors of Plasmodium falciparum proliferation (AID 504749); further: nearly all actives have a fitted effect of over 60% in size
Condition: P. falciparum in erythrocytes, SYBR Green DNA, 72 h; series mostly up to 28.7 µM
Records with an inconclusive call do not appear. Activity calls are given as the source filed them. Calls follow the shape of the dose curve; as a rule, active = well fitted inhibition curve with a large enough effect; inconclusive = small, poorly fitted or top-dose-only effect; inactive = flat fitted curve, though single readings scatter.
Classes used: 1.0 for active, 0.0 for inactive

{"Molecule": "O=C(O)C(O)c1ccccc1 (stereo not given)", "Group": 0.0}
{"Molecule": "CCCCCOC(=O)Nc1nc(=O)n(C2O[C@H](C)[C@@H](O)[C@@H]2O)cc1F (stereo not given in full)", "Group": 0.0}
{"Molecule": "CC(c1ncncc1F)[C@](O)(Cn1cncn1)c1ccc(F)cc1F (stereo not given in full)", "Group": 0.0}
{"Molecule": "C=C[C@@]1(C)C[C@H](OC(=O)CSC(C)(C)CNC(=O)[C@@H](N)C(C)C)[C@@]2(C)C(C)CC[C@@]3(CCC(=O)[C@@H]32)[C@H](C)[C@H]1O (stereo not given in full)", "Group": 1.0}
{"Molecule": "CC1CCC(C(C)C)C(O)C1 (stereo not given)", "Group": 0.0}

----------
System: HB3
Procedure Summary: qHTS profiling for inhibitors of Plasmodium falciparum proliferation (AID 504749); further: nearly all actives have a fitted effect of over 60% in size
Condition: P. falciparum in erythrocytes, SYBR Green DNA, 72 h; series mostly up to 28.7 µM
Inconclusive results are not listed. Active and inactive are the calls of the source. The call rests on the fitted dose curve; in most records, active means well fitted inhibition curve with a large enough effect; inconclusive means small, poorly fitted or top-dose-only effect; inactive means flat fitted curve, though single readings scatter.
Classes used: yes (1) (active), no (0) (inactive)

{"Molecule": "C[C@]12CC[C@@H]3c4ccc(O)cc4CC[C@H]3[C@@H]1C[C@H](O)C2O (stereo not given in full)", "Group": "no (0)"}
{"Molecule": "CNC1C(O)C(OC2C(NC(=O)C(O)CN)CC(N)C(OC3OC(CN)C(O)C(O)C3O)C2O)OCC1(C)O (stereo not given)", "Group": "no (0)"}
{"Molecule": "O=C(O)Cc1sc(-c2ccc(Cl)cc2)nc1-c1ccccc1", "Group": "no (0)"}
{"Molecule": "C=C1NC(=O)c2cc(CN(C)c3ccc(C(=O)N[C@@H](CCC(=O)O)C(=O)O)s3)ccc2N1", "Group": "no (0)"}
{"Molecule": "C/C=C\\C[C@H](C)[C@H](O)[C@H]1C(=O)N[C@@H](CC)C(=O)N(C)CC(=O)N(C)[C@@H](CC(C)C)C(=O)N[C@@H](C(C)C)C(=O)N(C)[C@@H](CC(C)C)C(=O)N[C@@H](C)C(=O)N[C@@H](C)C(=O)N(C)[C@@H](CC(C)C)C(=O)N(C)[C@@H](CC(C)C)C(=O)N(C)[C@@H](C(C)C)C(=O)N1C", "Group": "yes (1)"}
